Reference source for all entries: ChEMBL document CHEMBL3046290

System: Mus musculus
Test: Antihyperglycemic activity in high-fat fed Mus musculus Swiss albino (mouse) assessed as reduction of fasting serum insulin level at 30 mg/kg, po qd for 15 days
Type: functional
Parameters: scale not given: the % may be the effect or the level left
Measurement Type: Activity (%)
The figure you give is taken to be in %; do not add the unit.

Check out these entries, answers already filled in.
Compound	Target Of Assay	Measured Result
COc1ccc(/C=C2\SC(=O)N(Cc3ccc(C)cc3)C2=O)cc1	Mus musculus	65
Cc1ccc(CN2C(=O)S/C(=C\c3ccc(Cl)cc3)C2=O)cc1	Mus musculus	27
Cc1ccc(CN2C(=O)S/C(=C\c3ccc(N(C)C)cc3)C2=O)cc1	Mus musculus	56

Incoming: Record request: Activity value, item CN(CCOc1ccc(CC2SC(=O)NC2=O)cc1)c1ccccn1 (stereo not given)
Outgoing: 48

Incoming: Any idea what Activity was measured for `COc1ccc(/C=C2\SC(=O)N(Cc3ccc(C)cc3)C2=O)c(OC)c1` ?
Outgoing: 33

---

Tested on: Mus musculus
Test: Antihyperlipidemic activity in high-fat fed Mus musculus Swiss albino (mouse) assessed as reduction of serum cholesterol level at 30 mg/kg, po qd for 15 days
Format: functional
Set-up: scale not given: the % may be the effect or the level left
Measurement Type: Activity

Worked cases, Activity given:
Compound	Measured Result
COc1ccc(/C=C2\SC(=O)N(Cc3ccc(C)cc3)C2=O)c(OC)c1	36%
Cc1ccc(CN2C(=O)S/C(=C\c3ccc(N(C)C)cc3)C2=O)cc1	22%
CN(CCOc1ccc(CC2SC(=O)NC2=O)cc1)c1ccccn1 (stereo not given) [ROSIGLITAZONE]	35%
Cc1ccc(CN2C(=O)S/C(=C\c3ccc(Cl)cc3)C2=O)cc1	40%

Field: next compound
Incoming: Give its Activity value. Item: `COc1ccc(/C=C2\SC(=O)N(Cc3ccc(C)cc3)C2=O)cc1`
Outgoing: 27%

---

# Activity annotations
Test system: Mus musculus
Test: Antihyperlipidemic activity in high-fat fed Mus musculus Swiss albino (mouse) assessed as reduction of serum triglyceride level at 30 mg/kg, po qd for 15 days
Assay type: functional
Design: scale not given: the % may be the effect or the level left
Express your answer in %, writing the number without its unit.

Molecule	Measured Result
CN(CCOc1ccc(CC2SC(=O)NC2=O)cc1)c1ccccn1 (stereo not given)	43
Cc1ccc(CN2C(=O)S/C(=C\c3ccc(N(C)C)cc3)C2=O)cc1	23
COc1ccc(/C=C2\SC(=O)N(Cc3ccc(C)cc3)C2=O)c(OC)c1	38

Incoming: Entry `Cc1ccc(CN2C(=O)S/C(=C\c3ccc(Cl)cc3)C2=O)cc1` has what Activity?
Outgoing: 42

Incoming: // lookup Activity for `COc1ccc(/C=C2\SC(=O)N(Cc3ccc(C)cc3)C2=O)cc1`
Outgoing: 44
